conditions: male, Sprague-Dawley, rat, in vivo, po
Measurement Kind: Cmax
Please make sure the unit comes right after the number.

Per the records, this compound ( CCCCCCCC(=O)OCC(COC(=O)CCCCCCC)OC(=O)CC(C)CC(=O)OC(C)OC(=O)O[C@@H]1CC[C@@]2(C)[C@@H](CC[C@@H]3[C@@H]2CC[C@]2(C)[C@@H](C(C)=O)CC[C@@H]32)C1 (stereo partly shown) [I-36, ALL-CMSI-C5bMe-2-TG-octanoate] ) has Cmax equal to 242 nM

###

conditions: male, Sprague-Dawley, rat, in vivo, po, 2 mg/kg
Measurement Kind: Cmax (nM)
One number for each entry, in nM.

Per the records, this compound ( CCCCCCCC/C=C\CCCCCCCC(=O)OCC(COC(=O)CCCCCCC/C=C\CCCCCCCC)OC(=O)CC(C)CC(=O)OCO[C@@H]1CC[C@@]2(C)[C@@H](CC[C@@H]3[C@@H]2CC[C@]2(C)[C@@H](C(C)=O)CC[C@@H]32)C1 (stereo partly shown) [I-9] ) has Cmax equal to 126

###

details: male, Sprague-Dawley, rat, in vivo, po, 2 mg/kg
Consider the following compounds; for each one, report its Tmax.
Please make sure the unit comes right after the number.

Use these answered entries as a reference point.
compound="CCCCCCCC/C=C\\CCCCCCCC(=O)OCC(COC(=O)CCCCCCC/C=C\\CCCCCCCC)OC(=O)CC(C)CCCCC(=O)OCO[C@@H]1CC[C@@]2(C)[C@@H](CC[C@@H]3[C@@H]2CC[C@]2(C)[C@@H](C(C)=O)CC[C@@H]32)C1 (some centres unmarked)" value_measured="1.5 h"
compound="CCCCCCCC/C=C\\CCCCCCCC(=O)OCC(COC(=O)CCCCCCC/C=C\\CCCCCCCC)OC(=O)CC(C)CC(=O)OCO[C@@H]1CC[C@@]2(C)[C@@H](CC[C@@H]3[C@@H]2CC[C@]2(C)[C@@H](C(C)=O)CC[C@@H]32)C1 (some centres unmarked)" value_measured="1.3 h"
compound="CCCCCCCC/C=C\\CCCCCCCC(=O)OCC(COC(=O)CCCCCCC/C=C\\CCCCCCCC)OC(=O)CCCCC(C)CC(=O)OCOC(=O)O[C@@H]1CC[C@@]2(C)[C@@H](CC[C@@H]3[C@@H]2CC[C@]2(C)[C@@H](C(C)=O)CC[C@@H]32)C1 (some centres unmarked) [I-49, ALL-CASI-C8b′Me-2-TG-oleate]" value_measured="1.7 h"
compound=CCCCCCCC/C=C\CCCCCCCC(=O)OCC(COC(=O)CCCCCCC/C=C\CCCCCCCC)OC(=O)CCCCCCC(=O)OCO[C@@H]1CC[C@@]2(C)[C@@H](CC[C@@H]3[C@@H]2CC[C@]2(C)[C@@H](C(C)=O)CC[C@@H]32)C1 value_measured="1.7 h"

Moving on to another compound below.
Per the records, this compound ( CCCCCCCC/C=C\CCCCCCCC(=O)OCC(COC(=O)CCCCCCC/C=C\CCCCCCCC)OC(=O)CCCCC(=O)OCO[C@@H]1CC[C@@]2(C)[C@@H](CC[C@@H]3[C@@H]2CC[C@]2(C)[C@@H](C(C)=O)CC[C@@H]32)C1 ) has Tmax equal to 1.7 h
